Read-out: cysteine-aspartic acid protease (CASP8), CASP8 (gene 841)
Experiment: LTEA_HepaRG_CASP8: Life Technologies and Expression Analysis (LTEA) Assay for cysteine-aspartic acid protease (CASP8) using HepaRG (AID 2283480)
Details: mRNA level, 48 h; actives raise or lower the signal
Protocol: LTEA_HepaRG is a cell based, multiplexed-readout assay that uses HepaRG, a human liver cell line, with measurements taken at 48 hours after chemical dosing on a 96-well plate.LTEA_HepaRG_CASP8 is one of 102 assay component(s) measured in the LTEA HepaRG cell culture assay. It is a marker of Cell proliferation, survival, death.Data from the assay component LTEA_HepaRG_CASP8 was analyzed into 1 endpoint. […]
Active and inactive are the calls of the source. How the source made its calls: active means hit-call score of the fitted dose curve at least 0.9, where 1 is the maximum; inactive means score below 0.9.
// classify into active, inactive

> print(dat)
                                   molecule  category
1                       c1ccc(Nc2ccccc2)cc1  inactive
2  C[C@]12CC[C@@H]3c4ccc(O)cc4C[C@@H](CCCCCCCCCS(=O)CCCC(F)(F)C(F)(F)F)[C@H]3[C@@H]1CC[C@@H]2O (some centres undefined)  inactive

Kindly provide the recorded test outcome for the following molecule: c1ccc2[nH]c(-c3cscn3)nc2c1
inactive

Kindly provide the recorded test outcome for the following molecule: Cc1nn(C)c(Oc2ccccc2)c1C=NOCc1ccc(C(=O)OC(C)(C)C)cc1
inactive

Kindly provide the recorded test outcome for the following molecule: CCCOC(=O)NCCCN(C)C
inactive

Kindly provide the recorded test outcome for the following molecule: CCCCC(CC)CN1C(=O)C2C3C=CC(C3)C2C1=O (centres undefined)
inactive

Kindly provide the recorded test outcome for the following molecule: C#CCOC(=O)[C@@H](C)Oc1ccc(Oc2ncc(Cl)cc2F)cc1
inactive

Kindly provide the recorded test outcome for the following molecule: COC(=O)CSc1cc(N=c2sc(=O)n3n2CCCC3)c(F)cc1Cl
inactive

Kindly provide the recorded test outcome for the following molecule: CCOC(=O)C(C)Oc1ccc(Oc2nc3ccc(Cl)cc3o2)cc1 (centres undefined)
inactive

Kindly provide the recorded test outcome for the following molecule: C[C@]12C[C@H](O)[C@H]3[C@@H](CCC4=CC(=O)CC[C@@]43C)[C@@H]1CC[C@@H]2C(=O)CO
inactive

Kindly provide the recorded test outcome for the following molecule: O=C(c1ccc(O)cc1O)c1ccc(O)cc1O
inactive

Kindly provide the recorded test outcome for the following molecule: O=C(O)C1(C(=O)Nc2ccc(Cl)cc2Cl)CC1
inactive

Kindly provide the recorded test outcome for the following molecule: CCCCC(CC)COC(=O)c1ccccc1C(=O)O (centres undefined)
inactive

Kindly provide the recorded test outcome for the following molecule: CCCN(CCC)C(=O)SCC
inactive

Kindly provide the recorded test outcome for the following molecule: COc1c(Cl)ccc(Cl)c1C(=O)O
inactive

Kindly provide the recorded test outcome for the following molecule: CN(C)C(=O)Nc1ccc(Cl)c(Cl)c1
inactive

Kindly provide the recorded test outcome for the following molecule: CC(=O)[C@H]1CC[C@H]2[C@@H]3CCC4=CC(=O)CC[C@]4(C)[C@H]3CC[C@]12C
active

Kindly provide the recorded test outcome for the following molecule: CC(C)(c1ccc(O)cc1)c1ccc(O)cc1
inactive

Kindly provide the recorded test outcome for the following molecule: CCCCOC(=O)C(C)Oc1ccc(Oc2ccc(C(F)(F)F)cn2)cc1 (centres undefined)
inactive

Kindly provide the recorded test outcome for the following molecule: Oc1ccc(C(c2ccc(O)cc2)C(Cl)(Cl)Cl)cc1
active
